Give measured RU for each item. Keep answers brief.
Target: gEgI WT: HSV2 gEgI heterodimer comprising gE and gI wildtype ectodomains (HSV2, UniProt P89475 21-416; P06764 21-256)
Assay: SPR binning; gEgI captured by mAb 24
Give bare numbers, in RU.

For every record below, what is its RU?
1. mAb clone 15 (antibody, V domains shown) VH: QVQLKESGPGLVAPSQSLSITCTVSGFSLTSYGVSWVRQPPGKGLEWLGVIWGDGSTNYHSALISRLSISKDNSKSQVFLKLNSLQTDDTATYYCAKPDLYYDSPYAMDYWGQGTSVTVSS VL: DIQMTQSPASLSASVGETVTITCRASGNIHNYLAWYQQKQGKSPQLLVYNAKTLADGVPSRFSGSGSGTQYSLKINSLQPEDFGSYYCQHFWSTPWTFGGGTKLEIK
2. mAb clone 24 (antibody, V domains shown) VH: EVQLQQSGPELVKPGASVKMSCKASGYTFTDYYMKWVKQSHGKSLEWIGDINPNNGDTFYNQKFKGKATLTVDKSSSTAYMQLNSLTSEDSAVYYCARRGFYYYGSRGGIMDYWGQGTSVTVSS VL: NIMMTQSPSSLAVSAGEKVTMSCKSSQSVLYSSNQKNYLAWYQQKPGQSPKLLIYWASTRESGVPDRFTGSGSGTDFTLTISSVQAEDLAVYYCHQYLSSYTFGGGTKLEIK
3. mAb clone 19 (antibody, V domains shown) VH: QVQLQQSGAELVRPGVSVKISCKGSGYTFTDYAMHWVKQSHAKSLEWIGVISTYYGDARYNQKFKGKATMTVDKSSSTAYMELARLTSEDSAIYYCARRGITVVADYAMDYWGQGTSVTVSS VL: QIVLTQSPAIMSASPGEKVTMSCSASSSVTYMHWYQQKSGTSPKRWIYDTSKLASGVPARFSGSGSGTSYSLTISSMEAEDAATYYCQQWSSNPPTFGGGTKLEIK

Key:
1: 9.9; 2: 6.4; 3: 3.2

Data origin: patent US20230331820A1
